Assay info: chemical genetic growth profiling, strain panel (AID 1159580);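 further: tested at 20 µM; growth read once vehicle control cultures reached saturation at 30 °C; 1 = growth at the plate median or of vehicle wells; lower values mean less growth of the strain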
Study conditions: S. cerevisiae deletion strains, growth OD, locus YNL298W, strain CLA4, active compounds read low
Hit rate of the full screen: of about 5,500 compounds, about 2,000 (36%) were called active. Roughly 18% stayed inconclusive and do not appear here. This is one part of the list.
normalized growth reference
Respond using a number only.

CCC(C)C(OC(C)=O)C(=O)OC1C(O)C2C3(C)C=CC(=O)C(C)(C)C3CC(OC(=O)C(O)C(C)C)C2(C)C23OC2CC(c2ccoc2)C13C (stereo not drawn) :: 0.99
C[N+](C)(C)CCOC(N)=O :: 0.977
CS(=O)(=O)c1ccc(C2=C(c3ccccc3)C(=O)OC2)cc1 :: 0.99
C[C@]12CCC(=O)C=C1CCC1C2CC[C@@]2(C)C1CC[C@@H]2O (stereo partly drawn) :: 1
CC(C[N+](C)(C)C)OC(N)=O (stereo not drawn) :: 0.976
NC(=O)c1ccc[n+]([C@@H]2O[C@H](COP(=O)([O-])OP(=O)(O)OC[C@H]3O[C@@H](n4cnc5c(N)ncnc54)[C@H](O)[C@@H]3O)[C@@H](O)[C@H]2O)c1 :: 0.996
N=c1ccn2c(n1)O[C@@H]1C2O[C@H](CO)[C@H]1O (stereo partly drawn) :: 1.01
COP(=O)(OC)OC=C(Cl)Cl :: 1

Query: What does the data say about its normalized growth? Entry: `S=c1nc[nH]c2nc[nH]c12`
Reply: 0.989

Query: Looking for the measured normalized growth of `COc1cc2c(cc1OC)Cc1cc(OC)c(OC)cc1Cc1cc(OC)c(OC)cc1C2` , can you help?
Reply: 1.02

Query: Consider the compound CC[C@H](/C=C/C(C)C1CCC2C3CCC4=CC(=O)CC[C@]4(C)C3CC[C@]12C)C(C)C (stereo partly drawn) and give its measured normalized growth.
Reply: 1

Query: Requested read-out: normalized growth. Entry: CC1=C(C(C)O)C2=NC1C=c1[nH]c(c(C)c1C(C)O)=Cc1[nH]c(c(CCC(=O)O)c1C)C=c1[nH]c(c(C)c1CCC(=O)O)=C2 (stereo not drawn)
Reply: 1.02

Query: Returns the measured normalized growth for the input compound. Input: CC1=C(/C=C/C(C)=C/C=C/C(C)=C/C=C/C=C(C)/C=C/C=C(C)/C=C/C23OC2(C)CC(O)CC3(C)C)C(C)(C)CC(O)C1 (stereo not drawn)
Reply: 0.991

Query: Item `NCCSSCCN` has what recorded normalized growth?
Reply: 1

Query: Recorded normalized growth of `COc1cc2c(cc1OC)C(=O)OC2` , please.
Reply: 1.02

Query: I have this compound here, `CCCCCCCCCCCCCCCC(=O)OC/C=C(C)/C=C/C=C(C)/C=C/C1=C(C)CCCC1(C)C` , and I need its recorded normalized growth.
Reply: 1

Query: Which normalized growth reading was recorded for the compound Cc1cccc(C)c1OCC(C)N (stereo not drawn) ?
Reply: 0.986

Query: State the recorded normalized growth for this entry: ClC1=C(Cl)C2(Cl)C3C4C=CC(C4)C3C1(Cl)C2(Cl)Cl (stereo not drawn)
Reply: 0.981

Data provenance is PubChem BioAssay AID1159580.
